# STUDY_TARGET: DNA gyrase (Escherichia coli) (UniProt P0AES6+P0AES4)
# METHOD_DESCRIPTION: Concentration required to inhibit in vitro DNA gyrase activity isolated from Escherichia coli
# Type: protein-complex assay
ENDPOINT: Activity (µM)

COMPOUND	UNIT_SPEC	RESULT_NUMBER
NC1CN(c2cc3c(cc2F)c(=O)n(O)c(=O)n3C2CC2)C1	µM	18
O=c1c2cc(F)c(N3CCCC3)cc2n(CC2CC2)c(=O)n1O	µM	13

I: N[C@H]1CCN(c2cc3c(cc2F)c(=O)n(O)c(=O)n3C2CC2)C1
II: CN1CC2CN(c3cc4c(cc3F)c(=O)n(O)c(=O)n4C3CC3)CC2C1 (stereo unspecified)
III: N[C@H]1CCN(c2c(F)cc3c(=O)n(O)c(=O)n(C4CC4)c3c2F)C1
Arrange by Activity, high to low. Answer by naming the labels in the order asked.
II, I, III

1: CN[C@@H](C)[C@@H]1CCN(c2cc3c(cc2F)c(=O)n(O)c(=O)n3C2CC2)C1
2: N[C@H]1CCN(c2c(F)cc3c(=O)n(O)c(=O)n(C4CC4)c3c2Cl)C1
Param pair: 1 , 2 . Output: the one whose Activity is numerically greater. Answer format: the label of the selected item.
1
(1: 6.2 µM, 2: 1 µM)

* * *

# Test system: Enterococcus faecalis
# METHOD_DESCRIPTION: Minimum inhibitory concentration required against Gram-positive Enterococcus faecalis
# Format: functional
ENDPOINT: MIC (µg/mL)

Observe how each entry below is paired with its result.
COMPOUND	MIC [µg/mL]
CC(C)(N)[C@@H]1CCN(c2cc3c(cc2F)c(=O)n(O)c(=O)n3C2CC2)C1	16
CN1CC2CN(c3cc4c(cc3F)c(=O)n(O)c(=O)n4C3CC3)CC2C1 (stereo not given)	32
CN[C@@H](C)[C@@H]1CCN(c2cc3c(cc2F)c(=O)n(O)c(=O)n3C2CC2)C1	16
O=c1c2cc(F)c(N3CCC(CNCC(F)(F)F)C3)cc2n(C2CC2)c(=O)n1O (stereo not given)	16
C[C@H](N)[C@@H]1CCN(c2cc3c(cc2F)c(=O)n(O)c(=O)n3C2CC2)C1	4
O=c1c2cc(F)c(N3C[C@@H]4CCCN[C@@H]4C3)cc2n(C2CC2)c(=O)n1O	64

P: O=c1c2cc(F)c(N3CCCC3)cc2n(-c2ccc(F)cc2F)c(=O)n1O
Q: N[C@H]1CCN(c2c(F)cc3c(=O)n(O)c(=O)n(C4CC4)c3c2Cl)C1
R: N[C@@H]1[C@H]2CN(c3cc4c(cc3F)c(=O)n(O)c(=O)n4C3CC3)C[C@@H]12
S: N[C@H]1CCN(c2c(F)cc3c(=O)n(O)c(=O)n(C4CC4)c3c2F)C1
Arrange by MIC, high to low. Answer by naming the labels in the order asked.
P, Q, S, R
(P: 64 µg/mL, Q: 32 µg/mL, S: 16 µg/mL, R: 4 µg/mL)

* * *

# System: Streptococcus pyogenes
# METHOD_DESCRIPTION: Minimum inhibitory concentration required against Gram-positive Streptococcus pyogenes
# Type: functional
ENDPOINT: MIC (µg/mL)

a: N[C@H]1CCN(c2c(F)cc3c(=O)n(O)c(=O)n(C4CC4)c3c2Cl)C1
b: N[C@@H]1[C@H]2CN(c3cc4c(cc3F)c(=O)n(O)c(=O)n4C3CC3)C[C@@H]12
c: CCn1c(=O)n(O)c(=O)c2cc(F)c(N3CCCC3)cc21
d: C[C@H](N)[C@@H]1CCN(c2cc3c(cc2F)c(=O)n(O)c(=O)n3C2CC2)C1
Kindly provide a descending ordering of the above compounds based on their MIC. Answer by naming the labels in the order asked.
c, a, b, d

1: N[C@H]1CCN(c2cc3c(cc2F)c(=O)n(O)c(=O)n3C2CC2)C1
2: CN[C@@H](C)[C@@H]1CCN(c2cc3c(cc2F)c(=O)n(O)c(=O)n3C2CC2)C1
3: O=c1c2cc(F)c(N3C[C@@H]4CCCN[C@@H]4C3)cc2n(C2CC2)c(=O)n1O
4: O=c1c2cc(F)c(N3CCCC3)cc2n(C2CC2)c(=O)n1O
Arrange by MIC, high to low. Answer by naming the labels in the order asked.
3, 4, 1, 2

* * *

# Test system: Escherichia coli
# METHOD_DESCRIPTION: Minimum inhibitory concentration required against Gram-negative Escherichia coli TLC
# Type: functional
ENDPOINT: MIC (µg/mL)

Observe how each entry below is paired with its result.
COMPOUND	UNIT_SPEC	MIC
N[C@H]1CCN(c2c(F)cc3c(=O)n(O)c(=O)n(C4CC4)c3c2Cl)C1	µg/mL	1
O=c1c2cc(F)c(N3CCC(CNCC(F)(F)F)C3)cc2n(C2CC2)c(=O)n1O (stereo not given)	µg/mL	0.5

I: NC1CN(c2cc3c(cc2F)c(=O)n(O)c(=O)n3C2CC2)C1
II: CN1CC2CN(c3cc4c(cc3F)c(=O)n(O)c(=O)n4C3CC3)CC2C1 (stereo not given)
III: N[C@@H]1[C@H]2CN(c3cc4c(cc3F)c(=O)n(O)c(=O)n4C3CC3)C[C@@H]12
IV: O=c1[nH]c2cc(N3CCCC3)c(F)cc2c(=O)n1O
Sort ascending by MIC. Answer by naming the labels in the order asked.
III, I, II, IV

* * *

# STUDY_TARGET: DNA gyrase (Escherichia coli) (UniProt P0AES6+P0AES4)
# METHOD_DESCRIPTION: Concentration required to inhibit in vitro DNA gyrase activity isolated from Escherichia coli
# Assay type: protein-complex assay
ENDPOINT: Activity (µM)

Observe how each entry below is paired with its result.
COMPOUND	UNIT_SPEC	Activity
O=c1c2cc(F)c(N3CCCC3)cc2n(C2CC2)c(=O)n1O	µM	7
O=c1c2cc(F)c(N3CCC(CNCC(F)(F)F)C3)cc2n(C2CC2)c(=O)n1O (centres undefined)	µM	8
O=c1c2cc(F)c(N3C[C@@H]4CCCN[C@@H]4C3)cc2n(C2CC2)c(=O)n1O	µM	5

A: O=c1c2cc(F)c(-n3ccnc3)cc2n(C2CC2)c(=O)n1O
B: C[C@H](N)[C@@H]1CCN(c2cc3c(cc2F)c(=O)n(O)c(=O)n3C2CC2)C1
C: N[C@@H]1[C@H]2CN(c3cc4c(cc3F)c(=O)n(O)c(=O)n4C3CC3)C[C@@H]12
D: CC(C)(N)[C@@H]1CCN(c2cc3c(cc2F)c(=O)n(O)c(=O)n3C2CC2)C1
Arrange by Activity, high to low. Answer by naming the labels in the order asked.
B, D, C, A

* * *

# Tested on: Enterococcus faecalis
# METHOD_DESCRIPTION: Minimum inhibitory concentration required against Gram-positive Enterococcus faecalis
# Assay type: functional
ENDPOINT: MIC (µg/mL)

MOLECULE	STUDY_TARGET	ENDPOINT	RESULT_NUMBER
O=c1c2cc(F)c(N3CCCC3)cc2n(CC2CC2)c(=O)n1O	Enterococcus faecalis	MIC	64
O=C(O)c1cn(C2CC2)c2cc(N3CCNCC3)c(F)cc2c1=O [CIPROFLOXACIN]	Enterococcus faecalis	MIC	0.4
O=c1c2cc(F)c(-n3ccnc3)cc2n(C2CC2)c(=O)n1O	Enterococcus faecalis	MIC	64

* * *

# Test system: Streptococcus pyogenes
# METHOD_DESCRIPTION: Minimum inhibitory concentration required against Gram-positive Streptococcus pyogenes
# Format: functional
ENDPOINT: MIC (µg/mL)

Observe how each entry below is paired with its result.
COMPOUND	UNIT_SPEC	MIC
CC(C)(N)[C@@H]1CCN(c2cc3c(cc2F)c(=O)n(O)c(=O)n3C2CC2)C1	µg/mL	32
N[C@H]1CCN(c2c(F)cc3c(=O)n(O)c(=O)n(C4CC4)c3c2F)C1	µg/mL	16
O=c1c2cc(F)c(N3CCCC3)cc2n(CC2CC2)c(=O)n1O	µg/mL	8

a: O=c1c2cc(F)c(N3CCCC3)cc2n(Cc2ccccc2)c(=O)n1O
b: O=c1c2cc(F)c(-n3ccnc3)cc2n(C2CC2)c(=O)n1O
Param pair: a , b . Output: the one whose MIC is numerically greater. Answer format: the label of the selected item.
b
(b: 64 µg/mL, a: 32 µg/mL)

* * *

# System: Escherichia coli
# METHOD_DESCRIPTION: Minimum inhibitory concentration required against Gram-negative Escherichia coli TLC
# Format: functional
ENDPOINT: MIC (µg/mL)

Observe how each entry below is paired with its result.
MOLECULE	ENDPOINT	RESULT_NUMBER
Cn1c(=O)n(O)c(=O)c2cc(F)c(N3CCCC3)cc21	MIC	8
O=c1c2cc(F)c(N3CCCC3)cc2n(C2CC2)c(=O)n1O	MIC	0.13
CN[C@@H](C)[C@@H]1CCN(c2cc3c(cc2F)c(=O)n(O)c(=O)n3C2CC2)C1	MIC	2
CCn1c(=O)n(O)c(=O)c2cc(F)c(N3CCCC3)cc21	MIC	1
O=c1c2cc(F)c(N3CCCC3)cc2n(-c2ccc(F)cc2F)c(=O)n1O	MIC	32

1: CC(C)(N)[C@@H]1CCN(c2cc3c(cc2F)c(=O)n(O)c(=O)n3C2CC2)C1
2: O=c1c2cc(F)c(N3C[C@@H]4CCCN[C@@H]4C3)cc2n(C2CC2)c(=O)n1O
Param pair: 1 , 2 . Output: the one whose MIC is numerically greater. Answer format: the label of the selected item.
2

I: O=c1c2cc(F)c(N3CCCC3)cc2n(CC2CC2)c(=O)n1O
II: NCC1CCN(c2cc3c(cc2F)c(=O)n(O)c(=O)n3C2CC2)C1 (centres undefined)
III: N[C@H]1CCN(c2cc3c(cc2F)c(=O)n(O)c(=O)n3C2CC2)C1
Arrange by MIC, high to low. Answer by naming the labels in the order asked.
II, I, III
(II: 1 µg/mL, I: 0.5 µg/mL, III: 0.25 µg/mL)
